System: RPMI-8226
Experiment: NCI tumour cell line growth inhibition, 48 h
Activity calls are given as the source filed them. Cut-off read from the data, not from the text of the source: active = GI50 up to about 1.1 µM and inactive = higher. *1 amine or outer side, *2 acyl side, *3 side chain or, on linkers, in order; H or OH if unused. Where a SMILES comes first, the peptide text is derived from it. Bridges are numbered along the chain shown (N, C = ends). Roman numbers before positions name the chains, in order. [ ]: non-standard residue; d: D form. Actinocin(1to9) = Cc1c2oc3c(C)ccc(C(=O)[*:2])c3nc-2c(C(=O)[*:1])c(N)c1=O; NMeV = CN[CH](C(=O)O)C(C)C; Sar = CNCC(=O)O
Labels: t = active, f = inactive

>  <MOLECULE>
CC(=O)OCCCCn1cnc2c(Cl)nc(Nc3ccccc3)nc21

>  <CATEGORY>
f

$$$$
>  <MOLECULE>
[N-]=[N+]=CC(=O)OCCCCl

>  <CATEGORY>
f

$$$$
>  <MOLECULE>
FC1CCN(C2(c3cccs3)CCCCC2)CC1

>  <CATEGORY>
f

$$$$
>  <MOLECULE>
COc1ccc(CCC2NCCc3cc(OC)c(OC)cc32)cc1 (stereo not drawn)

>  <CATEGORY>
f

$$$$
>  <MOLECULE>
O=C1/C(=C/c2ccccc2)CCC/C1=C\c1ccccc1 [2,6-DIBENZYLIDENECYCLOHEXANONE]

>  <CATEGORY>
f

$$$$
>  <MOLECULE>
Nc1ccc(S(=O)(=O)Nc2nc3ccccc3nc2Nc2ccc(S(N)(=O)=O)cc2)cc1

>  <CATEGORY>
f

$$$$
>  <MOLECULE>
C/N=C(\Nc1cccc(C(F)(F)F)c1)SCc1ccc(N=C=S)cc1

>  <CATEGORY>
f

$$$$
>  <MOLECULE>
COC(=O)C1CCC(=O)N1C(c1ccc2c(c1)OCO2)c1cc(OC)c(OC)c(OC)c1 (stereo not drawn)

>  <CATEGORY>
f

$$$$
>  <MOLECULE>
O=C(O)C(Br)C(Br)C(=O)O (stereo not drawn)

>  <CATEGORY>
f

$$$$
>  <MOLECULE>
CC1(C)C2CCC3(OCCO3)C1C1OC12 (stereo not drawn)

>  <CATEGORY>
f

$$$$
>  <MOLECULE>
Nc1nc(N)c2ncn(-c3ccccc3)c2n1

>  <CATEGORY>
f

$$$$
>  <MOLECULE>
O=C1O/C(=C(/Cl)c2cccc3ccccc23)c2ccccc21

>  <CATEGORY>
f

$$$$
>  <MOLECULE>
COc1ccc(CC2NC(=O)C(NC(=O)c3c4nc5c(C(=O)NC6C(=O)NC(Cc7ccc(OC)cc7)C(=O)N7CCCC7C(=O)N(C)CC(=O)N(C)C(C(C)C)C(=O)OC6C)ccc(C)c5oc-4c(C)c(=O)c3N)C(C)OC(=O)C(C(C)C)N(C)C(=O)CN(C)C(=O)C3CCCN3C2=O)cc1 (stereo not drawn) (I: TY(Me)P[Sar][NMeV] / II: TY(Me)P[Sar][NMeV]; ester I:1-I:C, II:1-II:C; linker I:N-II:N via Actinocin(1to9); configuration not given here)

>  <CATEGORY>
t

$$$$
>  <MOLECULE>
Cc1ccc([N+](=O)[O-])cc1S(=O)(=O)Nc1ccc(C(=O)/C=C/c2ccccc2)cc1

>  <CATEGORY>
f

$$$$
>  <MOLECULE>
C=C(Cl)C(=C)CCC(Cl)C(C)C (stereo not drawn)

>  <CATEGORY>
f

$$$$
>  <MOLECULE>
CCOP(=O)(OCC)C(Cc1c[nH]c2ccccc12)C(=O)O (stereo not drawn)

>  <CATEGORY>
f

$$$$
>  <MOLECULE>
Cc1ccc(S(=O)(=O)OC(COC(=O)c2ccccc2)C(OS(=O)(=O)c2ccc(C)cc2)C(OS(=O)(=O)c2ccc(C)cc2)C(COC(=O)c2ccccc2)OS(=O)(=O)c2ccc(C)cc2)cc1 (stereo not drawn)

>  <CATEGORY>
f

$$$$
>  <MOLECULE>
NC(=S)N/N=C/C(O[C@@H](/C=N/NC(N)=S)CO)n1cnc2c(N)ncnc21 (stereo partly drawn)

>  <CATEGORY>
f

$$$$

====

Tested on: SK-MEL-5
Assay: NCI tumour cell line growth inhibition, 48 h
The source made the active and inactive calls. Cut-off read from the data, not from the text of the source: active = GI50 up to about 1.1 µM and inactive = higher.
Labels: 1 (yes) = active, 0 (no) = inactive

>  <COMPOUND>
O=C(OC(=C(c1ccccc1)c1ccccc1)N1CCCC1=S)C(c1ccccc1)c1ccccc1

>  <CATEGORY>
0 (no)

$$$$
>  <COMPOUND>
COC(=O)c1c(O)ccc2c1c1c(n2Cc2ccccn2)C(=O)c2ccccc2C1=O

>  <CATEGORY>
0 (no)

$$$$
>  <COMPOUND>
O=C1CCCc2ccc3c(c21)CC1(Cc2ccccc2C1)C3

>  <CATEGORY>
0 (no)

$$$$
>  <COMPOUND>
O=[N+]([O-])c1ccc(Sc2c3ccccc3nc3cc(Cl)ccc23)cc1

>  <CATEGORY>
0 (no)

$$$$
>  <COMPOUND>
O=C1C=CC(=O)c2c(O)nc(CBr)nc21

>  <CATEGORY>
0 (no)

$$$$
>  <COMPOUND>
CC(NC(=O)c1ccc(OP(=O)(OCC2=CC(=O)c3ccccc3C2=O)N(C)CCCCCl)cc1)c1ccc(OCC2CCCCC2)c(C(N)=O)c1 (stereo not given)

>  <CATEGORY>
1 (yes)

$$$$
>  <COMPOUND>
Cc1cccc(C)c1NC(=O)C(=O)C1C(=O)N(c2ccccc2)N=C1N (stereo not given)

>  <CATEGORY>
0 (no)

$$$$
>  <COMPOUND>
C=C(Br)N(CC)CC

>  <CATEGORY>
0 (no)

$$$$
>  <COMPOUND>
CCc1nnc(CC)n1NCCCC(=O)O

>  <CATEGORY>
0 (no)

$$$$
>  <COMPOUND>
COC1=C(C(c2cc(OC)c(OC)c(OC)c2)c2cc3c(cc2OC)OCO3)C(=O)OC1 (stereo not given)

>  <CATEGORY>
0 (no)

$$$$

====

Test system: RXF 631
Test: NCI tumour cell line growth inhibition, 48 h
The source made the active and inactive calls. No stated cut-off is given here; in the data, active = GI50 up to about 1.1 µM and inactive = higher.
Labels: label 1 = active, label 0 = inactive

>  <COMPOUND>
COc1ccc2nc3cccc(C(=O)NCCN(C)C)c3nc2c1

>  <CATEGORY>
label 0

$$$$
>  <COMPOUND>
COC1=CC(=O)NCCN1

>  <CATEGORY>
label 0

$$$$
>  <COMPOUND>
C[C@@H]1O[C@]2(O)[C@@H]3CCCN3S(=O)(=O)CCN2C1=O

>  <CATEGORY>
label 0

$$$$
>  <COMPOUND>
NC(=O)c1cn(C2OC(CO)C(O)C2O)c(=O)[nH]c1=O (stereo unspecified)

>  <CATEGORY>
label 0

$$$$
>  <COMPOUND>
COC(=O)C(=O)C(C(=O)OC)C(=O)C(=O)Nc1cc(Cl)c(Cl)cc1Cl (stereo unspecified)

>  <CATEGORY>
label 0

$$$$
>  <COMPOUND>
COc1cccc(/C=C\c2cc(OC)c(OC)c(OC)c2)c1

>  <CATEGORY>
label 1

$$$$
>  <COMPOUND>
CC(C)OC(=O)C1=C(O)c2ccccc2S(=O)(=O)N1

>  <CATEGORY>
label 0

$$$$
>  <COMPOUND>
COc1cc([C@@H]2c3cc4c(cc3[C@@H](NCc3ccccc3)C3COC(=O)[C@@H]32)OCO4)cc(OC)c1O (stereo partly specified)

>  <CATEGORY>
label 0

$$$$
>  <COMPOUND>
CCOP1(=O)C=C(C)C(=C(Cl)Cl)C(C)=C1 (stereo unspecified)

>  <CATEGORY>
label 0

$$$$
>  <COMPOUND>
CC1/C(=N\O)CC(c2ccccc2)N(C)C1c1ccccc1 (stereo unspecified)

>  <CATEGORY>
label 0

$$$$
>  <COMPOUND>
COc1ccc(C(=O)O)c(Cc2cccc3ccccc23)c1

>  <CATEGORY>
label 0

$$$$

====

Test system: SN12C
Test: NCI tumour cell line growth inhibition, 48 h
Calls of active or inactive are those of the source. Cut-off read from the data, not from the text of the source: active = GI50 up to about 1.1 µM and inactive = higher.

>  <MOLECULE>
CCCCCCCCCCCCCCCCCCNC(=S)N/C=C1/C(=O)C=C(C)OC1=O

>  <GI50>
37.8 µM (inactive)

$$$$
>  <MOLECULE>
CN(COC(=O)C(C)(C)C)c1nc(N(C)COC(=O)C(C)(C)C)nc(N(C)COC(=O)C(C)(C)C)n1

>  <GI50>
> 100 µM (inactive)

$$$$
>  <MOLECULE>
CC1=C2c3c(C)ccc4ccc(C)c(c34)C2(O)C(C)C1=O (stereo not given)

>  <GI50>
> 100 µM (inactive)

$$$$
>  <MOLECULE>
Cc1cc(NS(=O)(=O)c2ccc(Nc3c4ccccc4nc4c(C(=O)NCCO)cccc34)cc2)no1

>  <GI50>
32.7 µM (inactive)

$$$$
>  <MOLECULE>
CN1CCN(Cc2nc3cccc4c3c([n+]2[O-])-c2ccccc2-4)CC1

>  <GI50>
11.7 µM (inactive)

$$$$
>  <MOLECULE>
Cc1cccc(/C=N/NC(=S)N(C)CCc2ccccn2)n1

>  <GI50>
0.378 µM (active)

$$$$
>  <MOLECULE>
C[n+]1c2ccccc2c(/C=N\NS(=O)(=O)c2ccc(Cl)cc2)c2ccccc21

>  <GI50>
56.8 µM (inactive)

$$$$
>  <MOLECULE>
CCOC(=O)c1c(-c2ccccc2)c(C(OC(c2ccccc2)c2c(-c3ccccc3)c(C(=O)OCC)n3ccccc23)c2ccccc2)c2ccccn12 (stereo not given)

>  <GI50>
> 100 µM (inactive)

$$$$
>  <MOLECULE>
CC#C[C@@]1(O)CCCC[C@@H]1O

>  <GI50>
> 100 µM (inactive)

$$$$
>  <MOLECULE>
CCc1nnc(CC)n1NCCCC(=O)O

>  <GI50>
> 100 µM (inactive)

$$$$

Data provenance: ChEMBL document CHEMBL1201862
